Source: patent US20220040297A1

Target: CD3ε homodimer protein (human, UniProt P07766 23-126, limits assumed)
Sequence (P07766 23-126 limits assumed): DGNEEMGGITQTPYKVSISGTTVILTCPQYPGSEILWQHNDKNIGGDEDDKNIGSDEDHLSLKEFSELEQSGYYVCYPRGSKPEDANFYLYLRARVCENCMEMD
Test: SPR, immobilized CD3ε homodimer;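 further: biacore T200 surface plasmon resonance at 25 °C, antibody variants flowed as analytes over amine-coupled CD3ε homodimer on a CM4 chip, variant binding amount divided by that of GLS3000 antibody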
MEASUREMENT TYPE: ratio of amounts bound (vs GLS3000)
Give the value as a plain number.

BINDER: GLS3000 N30Y (antibody, name in Kabat numbering, V domains shown, one-arm format as m2) VH: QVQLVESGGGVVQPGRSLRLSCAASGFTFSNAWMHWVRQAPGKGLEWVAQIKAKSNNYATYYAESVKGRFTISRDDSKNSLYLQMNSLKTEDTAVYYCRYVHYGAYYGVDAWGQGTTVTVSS VL: DIVMTQSPLSLPVTPGEPASISCRSSQSLVHSNRYTYLHWYQQKPGQAPRLLIYKVSNRFSGVPDRFSGSGSGTDFTLKISRVEAEDVGVYYCGQGTQVPYTFGQGTKLEIK
MEASUREMENT TYPE: ratio of amounts bound (vs GLS3000)
NUMERIC READOUT: 1.04

BINDER: GLS3000 Y96F (antibody, name in Kabat numbering, V domains shown, one-arm format as m2) VH: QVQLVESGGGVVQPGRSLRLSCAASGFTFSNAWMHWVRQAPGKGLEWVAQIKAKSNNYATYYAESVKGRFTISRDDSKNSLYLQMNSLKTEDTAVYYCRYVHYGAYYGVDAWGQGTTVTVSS VL: DIVMTQSPLSLPVTPGEPASISCRSSQSLVHSNRNTYLHWYQQKPGQAPRLLIYKVSNRFSGVPDRFSGSGSGTDFTLKISRVEAEDVGVYYCGQGTQVPFTFGQGTKLEIK
MEASUREMENT TYPE: ratio of amounts bound (vs GLS3000)
NUMERIC READOUT: 1.17

Req: Tell us which ratio of amounts bound (vs GLS3000) value is on record for GLS3000 F55E (antibody, name in Kabat numbering, V domains shown, one-arm format as m2) VH: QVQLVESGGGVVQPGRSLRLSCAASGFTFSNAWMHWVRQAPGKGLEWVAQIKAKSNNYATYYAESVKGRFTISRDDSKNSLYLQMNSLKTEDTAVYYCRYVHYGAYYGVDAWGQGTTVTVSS VL: DIVMTQSPLSLPVTPGEPASISCRSSQSLVHSNRNTYLHWYQQKPGQAPRLLIYKVSNRESGVPDRFSGSGSGTDFTLKISRVEAEDVGVYYCGQGTQVPYTFGQGTKLEIK
Resp: 0.72
